Data origin, for the record: ChEMBL document CHEMBL1148256

The entries below are paired with their reported pIC50.
test system: Plasmodium falciparum; assay: In vitro inhibitory activity against chloroquine-resistant Plasmodium falciparum NF54-R in blood; type: functional, organism-based
pIC50 is defined as minus the log10 of a concentration measured in mol/L.

Consider the reported pIC50 for these compounds:
* COc1c(N2CCNC(C)C2)c(F)cc2c(=O)c(C(=O)O)cn(C3CC3)c12 (stereo not drawn) | 4.54
* N[C@@H]1[C@H]2CN(c3nc4c(cc3F)c(=O)c(C(=O)O)cn4-c3ccc(F)cc3F)C[C@@H]12 | 4.66

Pending compound:
stdin: Entry COc1c(N2C[C@@H]3CCCN[C@@H]3C2)c(F)cc2c(=O)c(C(=O)O)cn(C3CC3)c12 has what pIC50?
stdout: 4.35

* * *

test system: Plasmodium yoelii yoelii; experiment: In vitro inhibitory activity against hepatic stages of Plasmodium yoelii yoelii 265 BY; assay type: functional, organism-based
Readout: IC50 (µM)
Enter your answer as a number in µM; do not include the unit.

stdin: Entry N[C@@H]1[C@H]2CN(c3nc4c(cc3F)c(=O)c(C(=O)O)cn4-c3ccc(F)cc3F)C[C@@H]12 [TROVAFLOXACIN] has what IC50?
stdout: 74

* * *

tested on: MRC5; assay: In vitro inhibitory activity on MRC5 fibroblast tissue cultures inoculated with virulent RH strain of Toxoplasma gondii; format: functional, cell-based; settings: Homo sapiens
The entries below are paired with their reported pIC50.
pIC50 is defined as minus the log10 of a concentration measured in mol/L.

Consider the reported pIC50 for these compounds:
* COc1c(N2C[C@@H]3CCCN[C@@H]3C2)c(F)cc2c(=O)c(C(=O)O)cn(C3CC3)c12 [MOXIFLOXACIN] | 4.96
* N[C@@H]1[C@H]2CN(c3nc4c(cc3F)c(=O)c(C(=O)O)cn4-c3ccc(F)cc3F)C[C@@H]12 [TROVAFLOXACIN] | 6.02
* COc1c(N2CCNC(C)C2)c(F)cc2c(=O)c(C(=O)O)cn(C3CC3)c12 (centres undefined) [GATIFLOXACIN] | 4.90

Pending compound:
stdin: Entry N[C@@H]1[C@H]2CN(c3nc4c(cc3F)c(=O)c(C(=O)O)cn4C3CC3)C[C@@H]12 [TROVAFLOXACIN4] has what pIC50?
stdout: 5.77
